Entry source: PubChem BioAssay (NCI)

assay: NCI Yeast Anticancer Drug Screen. Data for the rad50 strain (AID 155); details: S. cerevisiae rad50 strain growth inhibition; at 50.0 µM
The panel holds about 79,000 compounds, 15% with a hit somewhere; the sample as a whole holds those more often. Calls of active or inactive are those of the source. Rule as the data show it: active = growth inhibition above about 70%; inactive = the rest.
I would appreciate it if you answered using one of these outcomes: Yes = active, No = inactive

{"columns": ["compound", "assigned.label"],
 "data": [
  ["O=C(O)/C=C/c1ccc2c(c1)CC1(Cc3ccccc3C1)C2", "No"],
  ["CCC/C(=N\\NC(=S)N(C)C)c1ccccn1", "Yes"],
  ["CC(=O)OC1CCC2(C)C3CCC4(C)C(CCC4(Br)C(=O)CBr)C3CC(Br)C2(Br)C1 (stereo unspecified)", "No"],
  ["Cc1cnc2cccc(Cl)c2c1Cl", "Yes"],
  ["CCCCCCCCCCCCCCCCN1CCSCC1", "Yes"]
]}

Then there is this compound:
Query string: Recorded test call requested for CS/C(=N\C(=S)Nc1ccccc1)Nc1ccccc1
Result string: Yes
